Parameter hGIPR, CRE Luc 1% HSA EC50 (pM): see the listing below.
Target: T1, human GIP receptor (human, UniProt P48546 22-466)
T1 sequence (looked up): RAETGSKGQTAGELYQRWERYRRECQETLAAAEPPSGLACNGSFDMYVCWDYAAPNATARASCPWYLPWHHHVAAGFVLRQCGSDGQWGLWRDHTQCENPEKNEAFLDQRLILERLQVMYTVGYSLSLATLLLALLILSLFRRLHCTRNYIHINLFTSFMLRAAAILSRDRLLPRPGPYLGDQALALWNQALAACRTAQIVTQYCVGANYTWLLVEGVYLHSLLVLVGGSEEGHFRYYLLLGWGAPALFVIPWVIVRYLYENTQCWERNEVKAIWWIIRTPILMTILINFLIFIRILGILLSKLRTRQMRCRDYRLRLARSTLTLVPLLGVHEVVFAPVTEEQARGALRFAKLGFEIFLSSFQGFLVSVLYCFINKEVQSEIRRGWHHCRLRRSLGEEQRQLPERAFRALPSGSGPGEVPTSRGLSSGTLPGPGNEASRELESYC
Experiment: cell-based or functional assay
Starred links: 1 amine or outer side, 2 acyl side, 3 side chain; linkers in the order of their positions; H or OH if unused. Non-standard residues stand in square brackets, D forms with d. Groups on a side chain read outwards from the residue. No end group written: not given here. *: point of attachment. C18 diacid = O=C(O)CCCCCCCCCCCCCCCCC(=O)*; C16 diacid = O=C(O)CCCCCCCCCCCCCCC(=O)*; γGlu = O=C(O)[C@H](CCC(=O)[*:2])N[*:1]; εLys = N[C@@H](CCCCN[*:1])C(=O)[*:2]; AEEA = NCCOCCOCC(=O)O; Aib = CC(C)(N)C(=O)O
Write the number in pM without appending the unit.

Guide cases for hGIPR, CRE Luc 1% HSA EC50 (pM), answers given:
Inquiry: Report measured hGIPR, CRE Luc 1% HSA EC50 (pM); entry is Y[Aib]EGTFTSDYSILLEK([AEEA-AEEA-γGlu-C18 diacid])QAAREFINWLLAGGPSSGAPPPS-OH [Compound No. 35]
Reply text: 303

Inquiry: Read the entry Y[Aib]EGTFTSDYSILLEEQAAREFIEWLLAGGPSKGAPPPS-OH (not fully specified (residue 33)) [Compound No. 47] and write its reported hGIPR, CRE Luc 1% HSA EC50 (pM).
Reply text: 156

Inquiry: Supply reported hGIPR, CRE Luc 1% HSA EC50 (pM) belonging to this binder: Y[Aib]EGTFTSDYSILLEEQAAREFIEWLLAGGPSK([εLys-εLys-γGlu-C16 diacid])GAPPPS-OH [Compound No. 46]
Reply text: 97

New cases:
Inquiry: Please report hGIPR, CRE Luc 1% HSA EC50 (pM) for the following binder: Y[Aib]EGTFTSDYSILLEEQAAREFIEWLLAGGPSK([AEEA-AEEA-γGlu-C18 diacid])GAPPPS-OH [Compound No. 45]
Reply text: 1220
